Taken from the supplement of paper PMC6555819.

Test system: PPARg:RXRa 90nM:30nM, anti-RXR (NR concentration 90 nM, RXRa partner concentration 30 nM)
Assay: PBM binding z-score (relative to random genomic background probes); higher = stronger binding; sequences stand for … in GC…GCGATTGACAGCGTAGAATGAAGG
Could you please classify the records by PBM binding z-score using these ranges: low bin (below 0.3), mid bin (0.3 to below 4), high bin (4 or more)

Just checking, what class would you give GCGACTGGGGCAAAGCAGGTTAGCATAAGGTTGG here?
mid bin

Which band does CGTCCAGGGTCAAAGGTCAGTGAAGAGATGACGG fall in?
high bin

Which category fits this record: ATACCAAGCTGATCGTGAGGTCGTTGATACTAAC
low bin

Kindly state the category for this sequence: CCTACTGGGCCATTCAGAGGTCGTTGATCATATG
mid bin

Would you mind sorting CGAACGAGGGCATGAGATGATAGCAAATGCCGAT into the appropriate category?
low bin

Form: Item = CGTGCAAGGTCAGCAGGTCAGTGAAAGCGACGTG ; Class = ?
mid bin

Class for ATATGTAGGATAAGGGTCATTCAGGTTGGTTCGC ?
high bin

Class (by measured PBM binding z-score) for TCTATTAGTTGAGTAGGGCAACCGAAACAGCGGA
mid bin

Assign a category based on measured PBM binding z-score for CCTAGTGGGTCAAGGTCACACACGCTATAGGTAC and give only the class name.
high bin

Sort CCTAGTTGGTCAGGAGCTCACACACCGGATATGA into one of the categories.
low bin

State the band of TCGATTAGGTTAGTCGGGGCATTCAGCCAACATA
mid bin

Assign a bin to ATACCAAGGTGATCGTGAGGTCCTTGATACTAAC
low bin

---

Test system: RARb:RXRa (NR concentration 270 nM, RXRa partner concentration 90 nM)
Assay: PBM binding z-score (relative to random genomic background probes); higher = stronger binding; sequences stand for … in GC…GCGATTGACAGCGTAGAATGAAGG
Measured PBM binding z-score determines class: low end (below 2), middle (2 to below 4), high end (4 or more)

For CCGACTGGGGCGAGGTTACCATAACGCACAGCCA , which PBM binding z-score bin applies?
low end

Which class does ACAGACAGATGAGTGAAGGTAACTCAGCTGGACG fall in?
low end

Please let me know in which category the item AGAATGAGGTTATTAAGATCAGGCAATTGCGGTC belongs.
low end

Tag the class for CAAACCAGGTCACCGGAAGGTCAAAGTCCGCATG
high end

Category lookup for the sequence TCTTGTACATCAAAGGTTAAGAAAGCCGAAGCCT
middle

Sort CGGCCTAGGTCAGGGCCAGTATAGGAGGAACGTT into one of the categories.
middle

Just checking, what class would you give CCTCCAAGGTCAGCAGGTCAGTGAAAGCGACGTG here?
high end

Record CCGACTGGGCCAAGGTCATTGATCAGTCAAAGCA — which class?
middle

Classify this sequence: CGTCCAAGGTCAATGCTATGTCAGTGAAAGCATT
high end

Determine which band this sequence sits in: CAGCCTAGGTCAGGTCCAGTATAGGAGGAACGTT
middle

---

Test system: PPARg:RXRa 90nM:30nM, anti-RXR (NR concentration 90 nM, RXRa partner concentration 30 nM)
Test: PBM binding z-score (relative to random genomic background probes); higher = stronger binding; sequences stand for … in GC…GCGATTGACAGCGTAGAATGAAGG
Threshold check on PBM binding z-score: at or above 0.9 gives met, strictly below gives not met.

Check if PBM binding z-score >= 0.9 (inclusive). Item: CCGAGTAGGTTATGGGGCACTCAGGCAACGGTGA
met

Determine whether this sequence has PBM binding z-score no lower than 0.9: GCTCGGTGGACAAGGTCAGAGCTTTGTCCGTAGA
not met

Does the sequence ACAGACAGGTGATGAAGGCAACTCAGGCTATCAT have recorded PBM binding z-score that is 0.9 or more?
not met

Is PBM binding z-score for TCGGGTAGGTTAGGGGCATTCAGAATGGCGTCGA at or above 0.9?
met

Is PBM binding z-score for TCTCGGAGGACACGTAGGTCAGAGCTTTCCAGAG at or above 0.9?
met

Please check the record ATCTTTAGGTAAAGATAGTTCAGTGAATGCAAAT and state if its PBM binding z-score is at or above 0.9.
not met

Is it the case that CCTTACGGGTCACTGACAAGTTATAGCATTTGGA has PBM binding z-score reaching or exceeding 0.9?
met

Decide: is the reported value of PBM binding z-score for GATACAGGGTCAAGGCCAGAGAACGCGTATTGAT equal to or greater than 0.9?
met

Can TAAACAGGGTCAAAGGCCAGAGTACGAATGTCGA be said to have PBM binding z-score at or above 0.9?
met

Does the reported PBM binding z-score for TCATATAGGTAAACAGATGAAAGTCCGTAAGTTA fall at or above the 0.9 mark?
met

Does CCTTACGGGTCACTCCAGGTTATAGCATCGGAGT have a reported PBM binding z-score of at least 0.9?
met

Dear colleague, could you confirm whether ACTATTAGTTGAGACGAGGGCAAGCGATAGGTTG has PBM binding z-score at or above 0.9?
not met

Is PBM binding z-score at least 0.9? Consider CGTCAGAGTTCAAGGTAACGTAACAGAAAGCAGC
met

Does the reported PBM binding z-score for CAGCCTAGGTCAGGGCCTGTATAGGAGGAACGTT fall at or above the 0.9 mark?
not met

Assess whether reported PBM binding z-score for CTCGAAAGGTCGTGCTCAGGTGCGTATACCAAAC sits at 0.9 or higher.
met

Threshold query (PBM binding z-score >= 0.9) on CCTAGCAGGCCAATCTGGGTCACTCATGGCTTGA
met

// inclusive: PBM binding z-score at least 0.9? input: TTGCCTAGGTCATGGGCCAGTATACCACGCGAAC
met

In plain terms: is recorded PBM binding z-score at least 0.9 for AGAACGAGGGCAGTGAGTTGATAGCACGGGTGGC ?
not met

Determine whether measured PBM binding z-score meets or exceeds 0.9 for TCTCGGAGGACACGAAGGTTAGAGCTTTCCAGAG
met

Determine whether measured PBM binding z-score meets or exceeds 0.9 for CCTTACGGGTCAGTCCAGGTTATAGCATCGGAGT
not met

API: above_or_equal(metric=PBM binding z-score, cutoff=0.9) for item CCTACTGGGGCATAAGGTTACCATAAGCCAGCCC
met

Does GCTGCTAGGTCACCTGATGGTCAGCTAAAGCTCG have a reported PBM binding z-score of at least 0.9?
met

# check: PBM binding z-score of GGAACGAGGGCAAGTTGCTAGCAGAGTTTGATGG is greater than or equal to 0.9
not met

Decide: PBM binding z-score of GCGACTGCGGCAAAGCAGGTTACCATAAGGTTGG >= 0.9?
not met

I'd appreciate it if you could say whether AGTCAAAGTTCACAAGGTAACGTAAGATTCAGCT has PBM binding z-score at least equal to 0.9.
met

Is the recorded value of PBM binding z-score equal to or greater than 0.9 for this sequence? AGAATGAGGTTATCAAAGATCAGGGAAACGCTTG
met
